Read-out: Interleukin-8 (IL8), CXCL8 (gene 3576)
Assay: BSK_hDFCGF_IL8: BioMAP Diversity Plus: hDFCGF Assay for Interleukin-8 (IL8) Biomarker Activity (AID 2283058)
Conditions: primary human foreskin fibroblasts; actives raise or lower the signal
Experimental: BSK_hDFCGF is a cell-based, multiplexed-readout assay that uses foreskin fibroblast, a human skin primary cell, with measurements taken at 24 hours after chemical dosing in a 96-well plate.BSK_hDFCGF_IL8 is an assay component measured in the BSK_hDFCGF assay. It measures IL-8 antibody related to regulation of gene expression using ELISA technology.Data from the assay component BSK_hDFCGF_IL8 was analyzed into 1 assay endpoint. […]
Active and inactive are the calls of the source. How the source made its calls: active means hit-call score of the fitted dose curve at least 0.9, where 1 is the maximum; inactive means score below 0.9.
Measure: AC50

Some solved entries appear below for comparison.
INSERT INTO results (compound, measure, measurement) VALUES
  ('Nc1nc2ncc(CNc3ccc(C(=O)N[C@@H](CCC(=O)O)C(=O)O)cc3)nc2c(=O)[nH]1', 'AC50', 'inactive'),
  ('COc1cccc(-c2ccc(/C=C\CN3CCCCCC3)cc2Cl)c1', 'AC50', '34.1 µM (active)'),
  ('CCNc1ccccc1', 'AC50', 'inactive'),
  ('CC(=O)c1ccc2c(c1)[C@H](NC(=O)c1ccc(F)cc1)[C@@H](O)C(C)(C)O2', 'AC50', 'inactive'),
  ('Cn1cnc([N+](=O)[O-])c1Sc1ncnc2nc[nH]c12', 'AC50', 'inactive');

Report measured AC50; entry is O=c1n(CC2CO2)c(=O)n(CC2CO2)c(=O)n1CC1CO1 (stereo unspecified)
inactive

Output AC50 of `COC(=O)CC(=O)OC`
inactive

Fill in AC50 for record `Oc1ccc2c(c1)-c1ccccc1C2`
inactive

----------
Experiment: ATG_RORE_CIS: Attagene CIS-FACTORIAL HepG2 Assay for human RAR-related Orphan Receptor Element (RORE) (AID 2282959)
Details: HepG2 Attagene cis-factorial RORE reporter, mRNA; actives raise or lower the signal
Active and inactive are the calls of the source. Rule for the calls: active = hit-call score of the fitted dose curve at least 0.9, where 1 is the maximum; inactive = score below 0.9.
Reply using exactly one outcome from 1 for active, 0 for inactive

Solved cases below.
INSERT INTO results (molecule, cat) VALUES
  ('CCCCC(CC)COC(=O)CCCCCCCCC(=O)OCC(CC)CCCC (stereo not drawn)', 0),
  ('CCn1nc(Cc2ccccc2)cc1C1CCN(C[C@H]2C[C@H](N(C)[C@@H](C(=O)O)C(C)C)C[C@@H]2c2cccc(F)c2)CC1', 0),
  ('CCOC(=O)COc1ccc2c(c1)CC(NCC(O)c1cccc(Cl)c1)CC2 (stereo not drawn)', 0),
  ('CCCN(C1CCN(C(=O)C2CCNCC2)CC1)[C@@H]1CCc2ccc(OC)cc2C1', 0),
  ('CCC(C)(C)C(=O)O[C@H]1C[C@@H](C)C=C2C=C[C@H](C)[C@H](CC[C@@H]3C[C@@H](O)CC(=O)O3)[C@H]21', 0),
  ('CCOc1cccc(-n2cc(C(=O)N3CCN(c4cc(C(=O)O)c5ccccc5c4)CC3)nc2-c2ccc(C)cc2)c1', 1),
  ('CCCCCCc1ccc(O)cc1O', 1),
  ('CC(C)CCCCCCOC(=O)c1ccc(C(=O)OCCCCCCC(C)C)c(C(=O)OCCCCCCC(C)C)c1', 0);

Could you kindly confirm the outcome this assay logged for CC(C)=CCCC(C)CCO (stereo not drawn) ?
0

Record request — test call for `O=C1CCCCCN1`
0

Tell me the assay call for `COCCOCCOCCOC` please.
0

What was the test verdict on `O=C(O)c1cccc(Oc2ccccc2)c1` ?
0

Could you please tell me the result logged for `Oc1ccc2c(c1)-c1ccccc1C2` in this assay?
1

Hi team, can someone confirm the assay call for `CC(C)CCO` ?
0

Could you check what this test reported for O=C(O)CC(O)C(=O)O (stereo not drawn) ?
0

Fill in: this test's call for `CC(C)=CCCC(C)=CC=O` is ___
0

GET /call?item= CNS(=O)(=O)c1cc(C(=O)N2CCC(CCN3C4CCC3CC(n3c(C)nc5ccccc53)C4)(c3cccc(F)c3)CC2)c(Cl)cc1F (stereo not drawn) returns the recorded outcome of this test.
0

Called result for `CC[C@H](C)C(=O)O[C@H]1C[C@@H](C)C=C2C=C[C@H](C)[C@H](CC[C@@H]3C[C@@H](O)CC(=O)O3)[C@H]21`
0

Recorded test call requested for `CN(C)c1ccc(Cc2ccc(N(C)C)cc2)cc1`
0

What is the recorded call for this molecule in the test? `COc1cccc(-c2ccc(/C=C\CN3CCCCCC3)cc2Cl)c1`
0

Identify the outcome logged in this assay for the molecule shown: `C1=CCCC=CCCC=CCC1`
0

Recorded test call requested for `Cc1[nH]cnc1C[C@H]1CCc2c(C)c3ccccc3n2C1=O`
1

Call for entry `CC[C@H]1CC[C@H](NCc2cc3c(cc2OC)[C@H]2C[C@H]2C(=O)N3C)[C@H](c2ccccc2)N1` :
0

Dear colleague, could you share the recorded outcome for `C=CC(=C)CCC=C(C)C` when you have a moment?
0

Answer briefly: the call reported for `Cc1ccc(N)cc1O` in this assay.
0

Could you kindly confirm the outcome this assay logged for `CC(C)(O)c1coc(S(=O)(=O)NC(=O)Nc2c3c(cc4c2CCC4)CCC3)c1` ?
0

Fill in: this test's call for `CNCc1ccc(NC(=O)c2c[nH]c3c2C(=O)CCC3)cc1` is ___
0

Lab log entry: `CCc1cc(SCc2sc(-c3ccc(C(F)(F)F)cc3)nc2CN2CCN(c3ccc(OC)cc3)CC2)ccc1OCC(=O)O` — outcome as called in the assay?
1
